system: HCoV-229E; set-up: species or system Huh-7; HTS, protection from HCoV-229E induced cell death, luminescent cell viability (CellCounting-Lite 2.0), inhibition rate; settings: 24 h post infection, 1 h compound pre-incubation; 10 µM; inhibitor
The whole screen tested about 3,300 compounds, of which about 95 (3%) showed an effect of 50% or more. The entries come from a sample that favours strong results as a whole.
Recorded 229E Inhibition rate for the following molecules

molecule: C=C(C)[C@@H]1CC[C@]2(C(=O)O[C@@H]3O[C@H](CO[C@@H]4O[C@H](CO)[C@@H](O[C@@H]5O[C@@H](C)[C@H](O)[C@@H](O)[C@H]5O)[C@H](O)[C@H]4O)[C@@H](O)[C@H](O)[C@H]3O)CC[C@]3(C)[C@H](CC[C@@H]4[C@@]5(C)CC[C@H](O[C@@H]6OC[C@H](O)[C@H](O)[C@H]6O[C@@H]6O[C@@H](C)[C@H](O)[C@@H](O)[C@H]6O)[C@@](C)(CO)[C@@H]5CC[C@]43C)[C@@H]12 [Pulchinenoside C]
result_units: %
229E Inhibition rate: 12.2
//
molecule: COc1c(CC=C(C)C)c(O)cc2oc(=O)c(-c3ccc(O)cc3O)cc12 [Glycycoumarin]
result_units: %
229E Inhibition rate: 5.6
//
molecule: Cc1cccc(CC(=O)O)c1 [m-Tolylacetic acid]
result_units: %
229E Inhibition rate: 18.9
//
molecule: N[C@@H](Cc1ccc(O)c([N+](=O)[O-])c1)C(=O)O [3-Nitro-L-tyrosine]
result_units: %
229E Inhibition rate: 8
//
molecule: COC(=O)C1=CO[C@@H](O[C@@H]2O[C@H](CO)[C@@H](O)[C@H](O)[C@H]2O)[C@@H]2[C@@H](C)CC(=O)[C@]12O [Hastatoside]
result_units: %
229E Inhibition rate: 0
//
molecule: COc1c(CC=C(C)C)c(O)cc2oc(=O)c3c4ccc(O)cc4oc3c12 [Neoglycyrol]
result_units: %
229E Inhibition rate: 90.8
//
molecule: CC(C)=CCc1cc2c(cc1O)oc(=O)c1c3ccc(O)cc3oc21 [Psoralidin]
result_units: %
229E Inhibition rate: 43.7

====

test system: HCoV-229E; parameters: species or system Huh-7; HTS, protection from HCoV-229E induced cell death, luminescent cell viability (CellCounting-Lite 2.0), inhibition rate; conditions: 24 h post infection, 1 h compound pre-incubation; 10 µM; inhibitor
The whole screen tested about 3,300 compounds, of which about 95 (3%) showed an effect of 50% or more. The full list was thinned out, with strong results kept by preference.
Recorded 229E Inhibition rate for the following compounds

structure_as_smiles: O=C(/C=C/c1ccc(O)cc1)c1ccc(O[C@@H]2O[C@H](CO)[C@@H](O)[C@H](O)[C@H]2O)cc1O
result_units: %
229E Inhibition rate: 24.9
--
structure_as_smiles: COc1cc(/C=C/C=O)ccc1O
result_units: %
229E Inhibition rate: 38.5
--
structure_as_smiles: CC1(C)CCC[C@](C)([C@H]2CC[C@]3(C)[C@@H]2[C@H](O)C[C@@H]2[C@@]4(C)CC[C@H](O)C(C)(C)[C@@H]4[C@@H](O)C[C@]23C)O1
result_units: %
229E Inhibition rate: 15.9
--
structure_as_smiles: O=C(/C=C/c1ccc(O[C@@H]2O[C@H](CO)[C@@H](O)[C@H](O)[C@H]2O)cc1)c1ccc(O)cc1O
result_units: %
229E Inhibition rate: 27.7
